Origin of the recorded values: a melting point compilation (Tetko et al.; mined from patent text by program, amines drawn as free bases though some values may be those of a salt)

endpoint.name: melting point

// query melting point value for entry O=C(O)c1c2c(nc3ccc(F)cc13)-c1ccc(-c3ccccc3F)cc1CC2 > 300 °C

// query melting point value for entry Nn1ccc(C(=O)c2ccccc2)c1 82 to 83 °C

// query melting point value for entry Cn1nnc(-c2ccc(-c3nnn(C)n3)nc2)n1 225 to 226 °C

// query melting point value for entry CC(C)(N)c1ccc(-c2nc(Nc3ccc(CCn4ccnc4)cc3)ncc2Cl)cc1F 112 to 120 °C

// query melting point value for entry Oc1ccc(-n2c(-c3ccccc3)cc3c2CCCC3)cc1 181 to 182 °C

// query melting point value for entry CCOC(=O)CN(SN(C)C(=O)Oc1cccc2c1OC(C)(C)C2)C(=O)CC 108 to 109 °C

// query melting point value for entry O=C(O)Cc1ccc(NC(=O)CCCCCNC(=O)OCc2ccccc2)cc1 136 to 138 °C

// query melting point value for entry O=C(O)Cn1cccc(NC(=O)OCc2ccccc2)c1=O 171 to 173 °C
